Reported values of % DAMGO + BFNA for individual entries
- testedTarget: mu opiate receptor (MOR) (Rattus norvegicus, UniProt P33535)
- Construct: from tissue; host or cells: striatum (membrane preparation)
- Sequence (P33535 whole entry): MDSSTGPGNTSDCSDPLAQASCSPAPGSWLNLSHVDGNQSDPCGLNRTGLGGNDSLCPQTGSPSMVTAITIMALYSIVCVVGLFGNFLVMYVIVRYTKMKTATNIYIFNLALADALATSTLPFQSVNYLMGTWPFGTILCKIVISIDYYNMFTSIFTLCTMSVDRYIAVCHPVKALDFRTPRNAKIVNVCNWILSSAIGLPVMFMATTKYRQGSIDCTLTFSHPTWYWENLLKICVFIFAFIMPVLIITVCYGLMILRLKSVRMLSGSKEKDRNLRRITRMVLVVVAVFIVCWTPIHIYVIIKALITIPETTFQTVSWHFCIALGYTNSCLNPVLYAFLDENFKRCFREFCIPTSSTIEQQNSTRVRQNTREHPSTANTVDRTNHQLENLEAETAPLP
- Format: biochemical
quantity: % DAMGO + BFNA (%)

> print(dat)
                                   compound        quantity  recordedvalue
1  CCN1CCC2(CC1)OCCN2S(=O)(=O)c1ccc(C(C)=O)cc1 [Compound C0094M]  % DAMGO + BFNA          334.2
2  CC1CN(CC(O)COc2ccc(Br)c(Cl)c2)CC(C)O1 (centres unmarked)  % DAMGO + BFNA          134.2
3  OC(COc1ccc(Br)c(F)c1)CN1CCSCC1 (centres unmarked)  % DAMGO + BFNA          214.8
4  O=S(=O)(c1ccc(Oc2ccccc2)cc1)N1CCC2(CC1)OCCN2S(=O)(=O)c1ccc(Oc2ccccc2)cc1 [Compound C0149M]  % DAMGO + BFNA          102.3
5  CC(=O)c1ccc(C(=O)N2CCC3(CC2)OCCN3C(=O)c2ccc(C(C)=O)cc2)cc1  % DAMGO + BFNA           98.9
